- Test system: MTB specific T CD4+ lymphocytes
- Type: cell-based, human
- test conditions: recently MTB exposed subjects; anergic subjects excluded
measure name: positive tests / evaluable subjects: Recently MTB exposed subjects

Previously resolved entries follow.
GSVRQLPSVLKPPLITLRTLTLSG (listed as Mycobacterium tuberculosis) [Peptide #3, peptide of Rv3479] :: 20/61
AVIVRSELLTQYL (listed as Mycobacterium tuberculosis) [Peptide #2, peptide of Rv1251c] :: 8/61
RPVRRVLLFVVPSSGPAP (listed as Mycobacterium tuberculosis) [Peptide #4, peptide of Rv3479] :: 13/61
ELMARAAVLGSAH (listed as Mycobacterium tuberculosis) [Peptide #6, peptide of Rv1251c] :: 6/61
TAWITAVVPGLMV (listed as Mycobacterium tuberculosis) [Peptide #1, peptide of Rv1478 (Consensus VIR)] :: 14/61

Task item: Value lookup for positive tests / evaluable subjects: Recently MTB exposed subjects; key = GEIIFISGRLNGaa (GEIIFISGRLNGAA; listed as Mycobacterium tuberculosis) [Peptide #5, peptide of Rv0724A]
Reply: 11/61
